Hey, just so you know, these numbers are from patent US8747537B2.

Assay: Solubility test in low-polarity solvents (saturated solution, λmax, solubility, εC)
Type: physicochemical
Settings: n-decane
value type: εC (molar extinction coefficient × concentration of saturated solution) (cm⁻¹)

A = CCCCc1nsc(/N=N/c2ccc(N(CC(CC)CCCC)CC(CC)CCCC)cc2C)c1C#N (stereo not shown) [Dye 13]
B = CCCCC(CC)CN(CC(CC)CCCC)c1ccc(N=Nc2sc(C(=O)OCC)c(C)c2C(=O)OCC)c(NC(C)=O)c1 (stereo not shown) [Dye 3]
C = CCCCC(CC)CN(CC(CC)CCCC)c1ccc(/N=N/c2snc(C)c2C#N)cc1 (stereo not shown) [Dye 17]
Query :: Please list the entries, largest εC (molar extinction coefficient × concentration of saturated solution) first. Note for the reader: the ranking is given by listing the labels in the order requested.
Result :: C, A, B
(C: 12000 cm⁻¹, A: 3700 cm⁻¹, B: 1300 cm⁻¹)

----------
Assay: Solubility test in low-polarity solvents (saturated solution, λmax, solubility, εC)
Assay type: physicochemical
Conditions: Isopar M; saturated solution
Experimental: The solubility of each dye in n-decane, tetradecane, Isopar M, Isopar G, and decalin was examined in the following manner. […] The saturated solution obtained was diluted to an adequate concentration, and the solubility of each dye was calculated from a relationship with an extinction coefficient determined beforehand. Furthermore, the value of the product of the molar extinction coefficient ε (Lmol^−1cm^−1) and the concentration C (molL^−1) of the saturated solution, εC, was determined. […]
value type: Solubility (%)

Query :: I would be grateful if you could share the reported Solubility for CCCCC(CC)CN(CC(CC)CCCC)c1ccc(N=Nc2snc(C)c2C#N)c(NC(C)=O)c1 (stereo not shown) .
Result :: 4.32

1 = CCCCC(CC)CN(CC(CC)CCCC)c1ccc(/N=N/c2sc(C(=O)OCC)c(C)c2C(=O)OCC)c(NC(=O)CC)c1 (stereo not shown)
2 = CCCCC(CC)CN(CC(CC)CCCC)c1ccc(N=Nc2snc(CC)c2C#N)c(NC(C)=O)c1 (stereo not shown)
Query :: Could you please tell me which of these two has the higher Solubility: 1 or 2 ? Kindly give the label for the entry you pick.
Result :: 2
(2: 20%, 1: 10%)

----------
Experiment: Light fastness test (retention of dye after 2 hours of high-pressure mercury lamp irradiation)
Format: physicochemical
Conditions: n-decane; 1 mg in 250 mL, 2 hours irradiation, 400-W high-pressure mercury lamp
value type: Light fastness: retention of dye (%)

Query :: Please give the measured Light fastness: retention of dye for this compound: CCCCC(CC)CN(CC(CC)CCCC)c1ccc(N=Nc2snc(C)c2C#N)c(NC(C)=O)c1 (centres unmarked)
Result :: 97

Query :: // query Light fastness: retention of dye value for entry CCCCC(CC)CN(CC(CC)CCCC)c1ccc(/N=N/c2sc(C(=O)OCC)c(C)c2C(=O)OCC)c(NC(=O)CC)c1 (centres unmarked)
Result :: 98

Query :: Requested field: Light fastness: retention of dye. Item: CCCCC(CC)CN(CC(CC)CCCC)c1ccc(N=Nc2sc(C(=O)OCC)c(C)c2C(=O)OCC)c(NC(C)=O)c1 (centres unmarked)
Result :: 92

Query :: I am curious: what Light fastness: retention of dye value has been reported for CCCCC(CC)CNc1ccc(NCC(CC)CCCC)c2c1C(=O)c1ccccc1C2=O (centres unmarked) [Comparative dye 2, reference compound] ?
Result :: 92

Query :: Bench note: what Light fastness: retention of dye did C=Cn1c(N=Nc2ccc(N(CCCC)CCCC)cc2NC(C)=O)nc(C#N)c1C#N [Comparative dye 3, reference compound] show?
Result :: 76

Query :: I have this compound here, CCc1nsc(N=Nc2ccc(N(CC(C)C)CC(C)C)cc2NC(C)=O)c1C#N , and I need its recorded Light fastness: retention of dye.
Result :: 97

Query :: # input compound: CCCCC(CC)CN(CC(CC)CCCC)c1ccc(/N=N/c2snc(CC)c2C#N)c(C)c1 (centres unmarked) ; wanted: its Light fastness: retention of dye
Result :: 96

Query :: Look up Light fastness: retention of dye for this compound: CCCCC(CC)CN(CC(CC)CCCC)c1ccc(N=Nc2snc(CC)c2C#N)c(NC(C)=O)c1 (centres unmarked)
Result :: 99

----------
Assay: Solubility test in low-polarity solvents (saturated solution, λmax, solubility, εC)
Assay type: physicochemical
Details: n-decane
Description: The solubility of each dye in n-decane, tetradecane, Isopar M, Isopar G, and decalin was examined in the following manner. […] The saturated solution obtained was diluted to an adequate concentration, and the solubility of each dye was calculated from a relationship with an extinction coefficient determined beforehand. Furthermore, the value of the product of the molar extinction coefficient ε (Lmol^−1cm^−1) and the concentration C (molL^−1) of the saturated solution, εC, was determined. […]
value type: εC (molar extinction coefficient × concentration of saturated solution) (cm⁻¹)

Example entries and their recorded answers appear below.
Query :: # lookup: εC (molar extinction coefficient × concentration of saturated solution) of CCCCCCCCN(CC(CC)CCCC)c1ccc(/N=N/c2snc(C)c2C#N)c(C)c1 (centres unmarked)
Result :: 1300

Query :: Which value of εC (molar extinction coefficient × concentration of saturated solution) has been reported for CCc1nsc(N=Nc2ccc(N(CC(C)C)CC(C)C)cc2NC(C)=O)c1C#N in the records?
Result :: 1000

A = CCOC(=O)c1sc(/N=N/c2ccc(N(CC(C)C)CC(C)C)cc2C)c(C(=O)OCC)c1C
B = CCCCC(CC)CN(CC)c1ccc(/N=N/c2snc(CC)c2C#N)c(NC(C)=O)c1 (centres unmarked)
C = CCCCC(CC)CN(CC(CC)CCCC)c1ccc(/N=N/c2snc(C(C)C)c2C#N)c(C)c1 (centres unmarked)
Query :: With regard to εC (molar extinction coefficient × concentration of saturated solution), arrange the entries in ascending order, please. Note for the reader: the ranking is given by listing the labels in the order requested.
Result :: A, C, B
(A: 1000 cm⁻¹, C: 2800 cm⁻¹, B: 4300 cm⁻¹)

----------
Experiment: Solubility test in low-polarity solvents (saturated solution, λmax, solubility, εC)
Type: physicochemical
Conditions: n-decane; saturated solution, stood at 5° C. for 24 hours, 0.1-μm filter
Method: The solubility of each dye in n-decane, tetradecane, Isopar M, Isopar G, and decalin was examined in the following manner. […] The saturated solution obtained was diluted to an adequate concentration, and the solubility of each dye was calculated from a relationship with an extinction coefficient determined beforehand. Furthermore, the value of the product of the molar extinction coefficient ε (Lmol^−1cm^−1) and the concentration C (molL^−1) of the saturated solution, εC, was determined. […]
value type: Solubility (%)

Guide cases for Solubility, answers given:
Query :: // query Solubility value for entry CCCCC(CC)CN(CC(CC)CCCC)c1ccc(N=Nc2sc(C(=O)OCC)c(C)c2C(=O)OCC)c(NC(C)=O)c1 (stereo not shown)
Result :: 2.4

Query :: // lookup Solubility for CCCCC(CC)CN(CC(CC)CCCC)c1ccc(/N=N/c2snc(C)c2C#N)c(NC(=O)CC)c1 (stereo not shown)
Result :: 13

Query :: Data request, read-out Solubility, for CCCCC(CC)CN(CC(CC)CCCC)c1ccc(N=Nc2snc(C)c2C#N)c(NC(C)=O)c1 (stereo not shown)
Result :: 7.9

Query :: Any idea what its Solubility is? The molecule is CCCCC(CC)CN(CC(CC)CCCC)c1ccc(/N=N/c2snc(C)c2C#N)c(CC)c1 (stereo not shown)
Result :: 10

Query :: Requested read-out: Solubility. Entry: CCCCC(CC)CN(CC(CC)CCCC)c1ccc(/N=N/c2snc(C)c2C#N)cc1 (stereo not shown)
Result :: 9.2

Query :: // query Solubility value for entry CCCCCCCCN(CC(CC)CCCC)c1ccc(/N=N/c2snc(C)c2C#N)c(C)c1 (stereo not shown)
Result :: 2.1

Query :: Need Solubility of CCCCC(CC)CN(CC(CC)CCCC)c1ccc(/N=N/c2sc(C(=O)OCC)c(C)c2C(=O)OCC)c(NC(=O)CC)c1 (stereo not shown) , thanks.
Result :: 10.3

Query :: Return reported Solubility; argument: CCCCC(CC)CNc1ccc(NCC(CC)CCCC)c2c1C(=O)c1ccccc1C2=O (stereo not shown) [Comparative dye 2, reference compound]
Result :: 6.6

a = CCCCC(CC)CN(CC(CC)CCCC)c1ccc(N=Nc2snc(CC)c2C#N)c(NC(C)=O)c1 (stereo not shown)
b = CCCCc1nsc(/N=N/c2ccc(N(CC(C)C)CC(C)C)cc2NC(C)=O)c1C#N
c = CCCCC(CC)CN(CC(CC)CCCC)c1ccc(/N=N/c2sc(C(=O)OCC)c(C)c2C(=O)OCC)c(C)c1 (stereo not shown)
Query :: Arrange the 3 molecules by rising Solubility, starting with the smallest. Answer format: list of labels, ordered as asked.
Result :: b, c, a
(b: 5.7%, c: 8.4%, a: 20%)

----------
Experiment: Solubility test in low-polarity solvents (saturated solution, λmax, solubility, εC)
Type: physicochemical
Conditions: decalin
value type: εC (cm⁻¹)

Here's what some known entries look like.
Query :: Entry CCCCC(CC)CN(CC(CC)CCCC)c1ccc(/N=N/c2snc(CC)c2C#N)c(C)c1 (stereo not drawn) has what εC?
Result :: 5200

Query :: Entry CCCCC(CC)CN(CC(CC)CCCC)c1ccc(N=Nc2snc(C)c2C#N)c(NC(C)=O)c1 (stereo not drawn) has what εC?
Result :: 24000

Query :: For CCCCC(CC)CN(CC(CC)CCCC)c1ccc(N=Nc2snc(CC)c2C#N)c(NC(C)=O)c1 (stereo not drawn) , what is its reported εC?
Result :: 6600

P = CCCCC(CC)CNc1ccc(NCC(CC)CCCC)c2c1C(=O)c1ccccc1C2=O (stereo not drawn) [Comparative dye 2, reference compound]
Q = CCCCC(CC)CN(CC(CC)CCCC)c1ccc(/N=N/c2snc(C)c2C#N)c(NC(=O)CC)c1 (stereo not drawn)
Query :: So which one has the bigger εC here, P or Q ? Your choice should be expressed through its label.
Result :: Q
